Data provenance is patent US10206394B2.

- System: Lolium perenne (LOLPE)
- Measurement Notes: Glasshouse assay for herbicidal activity (pre- and post-emergence), percentage phytotoxicity
- Type: in vivo
- Measurement Setup: Lolium perenne, pre-emergence, 480 h, Rate 250 g/ha; pre-emergence; visual assessment 20 DAA; 100%=total damage, 0%=no damage; read-out: Pre-emergence herbicidal activity (percentage phytotoxicity) LOLPE PRE
For each record, write down the corresponding pest or weed control at 250 g/ha.

Illustrative cases are given below, each with its answer.
[
  {
    "Compound": "C=C(C)CNC(=O)CC1CC(=O)C(c2c(C)cc(-c3ncc(Cl)cn3)cc2C)C1=O (centres unmarked)",
    "pest or weed control at 250 g/ha": "80%"
  },
  {
    "Compound": "C#Cc1cc(-c2ncc(F)cc2F)cc(C)c1C1C(=O)CC(CC(=O)NC(C)(C)C)C1=O (centres unmarked)",
    "pest or weed control at 250 g/ha": "90%"
  },
  {
    "Compound": "Cc1cc(-c2ccc(Cl)cn2)cc(C)c1C1C(=O)CC(CC(=O)NC/C=C/Cl)C1=O (centres unmarked)",
    "pest or weed control at 250 g/ha": "100%"
  }
]

For each of the items listed, what is its pest or weed control at 250 g/ha?
1. C=Cc1cc(-c2ncc(F)cn2)cc(C)c1C1C(=O)CC(CC(=O)NC(C)(C)C)C1=O (centres unmarked)
2. C=C(C)CNC(=O)CC1CC(=O)C(c2c(C)cc(-c3ccc(Cl)cn3)cc2C)C1=O (centres unmarked)
3. Cc1cc(-c2ccc(F)cn2)cc(C)c1C1C(=O)CC(CC(=O)NCC2CC2)C1=O (centres unmarked)
4. Cc1cc(-c2ncc(F)cc2F)cc(C)c1C1C(=O)CC(CC(=O)NO)C1=O (centres unmarked)

1. 80%
2. 90%
3. 100%
4. 20%

Entry C#CC(C)(C)NC(=O)CC1CC(=O)C(c2c(C)cc(-c3ncc(Cl)cn3)cc2C)C1=O (centres unmarked) : reported pest or weed control at 250 g/ha = ?
100%

###

- Test system: Alopecurus myosuroides (ALOMY)
- Measurement Notes: Glasshouse assay for herbicidal activity (pre- and post-emergence), percentage phytotoxicity
- Type: in vivo
- Measurement Setup: Alopecurus myosuroides, pre-emergence, 480 h, 250 g/ha; pre-emergence; 20 DAA; visual assessment (100%=total damage, 0%=no damage); read-out: Pre-emergence herbicidal activity (percentage phytotoxicity) ALOMY PRE
Measurement Type: pest or weed control at 250 g/ha (%)
Numbers only, in %.

[
  {
    "Compound": "C=C(C)CNC(=O)CC1CC(=O)C(c2c(C)cc(OCC(F)(F)F)cc2C)C1=O (stereo not drawn)",
    "pest or weed control at 250 g/ha, %": 90
  },
  {
    "Compound": "C/C=C/CNC(=O)CC1CC(=O)C(c2c(C)cc(C)cc2C)C1=O (stereo not drawn)",
    "pest or weed control at 250 g/ha, %": 90
  },
  {
    "Compound": "Cc1cc(-c2ncc(F)cc2F)cc(C)c1C1C(=O)CC(CC(N)=O)C1=O (stereo not drawn)",
    "pest or weed control at 250 g/ha, %": 80
  },
  {
    "Compound": "Cc1cc(Br)cc(C)c1C1C(=O)CC(CC(=O)NC(C)C)C1=O (stereo not drawn)",
    "pest or weed control at 250 g/ha, %": 90
  },
  {
    "Compound": "C#CCN(CC#C)C(=O)CC1CC(=O)C(c2c(C)cc(-c3ncc(F)cn3)cc2C)C1=O (stereo not drawn)",
    "pest or weed control at 250 g/ha, %": 90
  },
  {
    "Compound": "Cc1cc(-c2ncc(F)cc2C#N)cc(C)c1C1C(=O)CC(CC(=O)NC(C)(C)C)C1=O (stereo not drawn)",
    "pest or weed control at 250 g/ha, %": 40
  },
  {
    "Compound": "C#CC(C)(C)NC(=O)CC1CC(=O)C(c2c(C)cc(-c3ncc(Cl)cc3F)cc2C)C1=O (stereo not drawn)",
    "pest or weed control at 250 g/ha, %": 100
  },
  {
    "Compound": "Cc1cc(-c2ncccc2Cl)cc(C)c1C1C(=O)CC(CC(=O)NC(C)(C)C)C1=O (stereo not drawn)",
    "pest or weed control at 250 g/ha, %": 10
  },
  {
    "Compound": "Cc1cc(-c2ncc(F)cc2F)cc(C)c1C1C(=O)CC(CC(=O)NCc2cccc(Br)c2)C1=O (stereo not drawn)",
    "pest or weed control at 250 g/ha, %": 90
  },
  {
    "Compound": "Cc1cc(C)c(C2C(=O)CC(CC(=O)NC(C)(C)C3CC3)C2=O)c(C)c1 (stereo not drawn)",
    "pest or weed control at 250 g/ha, %": 80
  }
]

Hi, could you look up pest or weed control at 250 g/ha for each item in my list?
1. Cc1cc(-c2ncc(F)cn2)cc(C)c1C1C(=O)CC(CC(=O)NC(C)(C)C)C1=O (stereo not drawn)
2. C#Cc1ccc(CNC(=O)CC2CC(=O)C(c3c(C)cc(C)cc3C)C2=O)cc1 (stereo not drawn)
3. Cc1cc(Br)cc(C)c1C1C(=O)CC(CC(=O)NCC2CC2C(F)F)C1=O (stereo not drawn)
4. Cc1cc(C)c(C2CC(=O)C(CC(=O)NC(C)CC(C)C)C2=O)c(C)c1 (stereo not drawn)
5. Cc1cc(C)c(C2C(=O)CC(CC(=O)NCC(F)F)C2=O)c(C)c1 (stereo not drawn)
6. Cc1cc(C)c(C2C(=O)CC(CC(=O)NCC=C(Cl)Cl)C2=O)c(C)c1 (stereo not drawn)

1. 100
2. 70
3. 90
4. 90
5. 70
6. 80

Provide the reported pest or weed control at 250 g/ha of each entry below, same order.
1. Cc1cc(OCC(F)(F)F)cc(C)c1C1C(=O)CC(CC(=O)NC(C)(C)C)C1=O (stereo not drawn)
2. CCc1cc(-n2cc(Cl)cn2)cc(C)c1C1C(=O)CC(CC(=O)NC(C)(C)C)C1=O (stereo not drawn)
3. Cc1cc(C)c(C2C(=O)CC(CC(=O)NCc3ncccc3C)C2=O)c(C)c1 (stereo not drawn)
4. Cc1cc(-c2ncc(Cl)s2)cc(C)c1C1C(=O)CC(CC(=O)NC(C)(C)C)C1=O (stereo not drawn)

1. 60
2. 100
3. 90
4. 80

Value sought for every listed compound: pest or weed control at 250 g/ha.
1. Cc1cc(-n2ncc(Cl)c2C)cc(C)c1C1C(=O)CC(CC(=O)NC(C)(C)C)C1=O (stereo not drawn)
2. COCC(C)NC(=O)CC1CC(=O)C(c2c(C)cc(-c3ncc(Cl)cc3F)cc2C)C1=O (stereo not drawn)
3. COCCCNC(=O)CC1CC(=O)C(c2c(C)cc(-c3ncc(F)cn3)cc2C)C1=O (stereo not drawn)
4. Cc1cc(C)c(C2C(=O)CC(CC(N)=O)C2=O)c(C)c1 (stereo not drawn)
5. Cc1cc(C)c(C2C(=O)CC(CC(=O)NC3=NOC(C)(C)C3)C2=O)c(C)c1 (stereo not drawn)

1. 40
2. 100
3. 80
4. 80
5. 0

Would you mind giving pest or weed control at 250 g/ha for every compound in the list below?
1. Cc1cc(-c2ncc(F)cc2F)cc(C)c1C1C(=O)CC(CC(=O)NCc2cc(F)cc(F)c2)C1=O (stereo not drawn)
2. Cc1cc(C)c(C2C(=O)CC(CC(=O)NCc3ccc(C#N)cc3)C2=O)c(C)c1 (stereo not drawn)

1: 90; 2: 50

###

- System: Avena fatua (AVEFA)
- Measurement Notes: Glasshouse assay for herbicidal activity (pre- and post-emergence), percentage phytotoxicity
- Type: in vivo
- Measurement Setup: Avena fatua, pre-emergence, 480 h, Rate 250 g/ha; pre-emergence; assessed visually 20 DAA; 100%=total damage, 0%=no damage; read-out: Pre-emergence herbicidal activity (percentage phytotoxicity) AVEFA PRE
Measurement Type: pest or weed control at 250 g/ha (%)
Give bare numbers, in %.

Past entries and their recorded results:
[
  {
    "Compound": "Cc1cc(-c2ncc(Cl)cc2F)cc(C)c1C1C(=O)CC(CC(=O)NC2CC2)C1=O (centres unmarked) [Compound A45]",
    "pest or weed control at 250 g/ha / %": 100
  },
  {
    "Compound": "C=CCCNC(=O)CC1CC(=O)C(c2c(C)cc(-c3ncc(Cl)cc3F)cc2C)C1=O (centres unmarked) [Compound A111]",
    "pest or weed control at 250 g/ha / %": 90
  },
  {
    "Compound": "Cc1cc(-c2ncc(Cl)cc2F)cc(C)c1C1C(=O)CC(CC(=O)NCc2cccc(C(F)(F)F)c2)C1=O (centres unmarked) [Compound A120]",
    "pest or weed control at 250 g/ha / %": 90
  },
  {
    "Compound": "Cc1cc(C)c(C2C(=O)CC(CC(=O)NCCC3=CCCCC3)C2=O)c(C)c1 (centres unmarked) [Compound A91]",
    "pest or weed control at 250 g/ha / %": 30
  },
  {
    "Compound": "Cc1cccc(CNC(=O)CC2CC(=O)C(c3c(C)cc(C)cc3C)C2=O)c1 (centres unmarked) [Compound A88]",
    "pest or weed control at 250 g/ha / %": 0
  },
  {
    "Compound": "Cc1cc(-n2cc(Cl)cn2)cc(C)c1C1C(=O)CC(CC(=O)NCC(C)C)C1=O (centres unmarked) [Compound A72]",
    "pest or weed control at 250 g/ha / %": 90
  }
]

Please give pest or weed control at 250 g/ha for each item listed below.
1. C#Cc1cc(C)c(C2C(=O)CC(CC(=O)NC(C)(C)C)C2=O)c(C)c1 (centres unmarked) [Compound A43]
2. Cc1cc(-c2ncc(Cl)cc2F)cc(C)c1C1C(=O)CC(CC(=O)NCc2cccs2)C1=O (centres unmarked) [Compound A125]
3. Cc1cc(C)c(C2C(=O)CC(CC(=O)NCCC#N)C2=O)c(C)c1 (centres unmarked) [Compound A86]
4. Cc1cc(C)c(C2C(=O)CC(CC(=O)N3CCCC3)C2=O)c(C)c1 (centres unmarked) [Compound A162]

1. 100
2. 80
3. 0
4. 70

Parameter requested: pest or weed control at 250 g/ha. Apply to each item below.
1. Cc1cc(-c2ncc(Cl)cc2F)cc(C)c1C1C(=O)CC(CC(=O)NCc2ccsc2)C1=O (centres unmarked) [Compound A130]
2. CCCN(C)C(=O)CC1CC(=O)C(c2c(C)cc(C)cc2C)C1=O (centres unmarked) [Compound A25]
3. C#CCNC(=O)CC1CC(=O)C(c2c(C)cc(C)cc2C)C1=O (centres unmarked) [Compound A10]
4. COc1ccccc1CNC(=O)CC1CC(=O)C(c2c(C)cc(C)cc2C)C1=O (centres unmarked) [Compound A90]
5. Cc1cc(-c2ncc(Cl)cc2Cl)cc(C)c1C1C(=O)CC(CC(=O)NCc2cccc(Cl)c2)C1=O (centres unmarked) [Compound A135]
6. CCCCNC(=O)CC1CC(=O)C(c2c(C)cc(C)cc2C)C1=O (centres unmarked) [Compound A12]
7. Cc1cc(C)c(C2C(=O)CC(CC(=O)NCc3ccccc3F)C2=O)c(C)c1 (centres unmarked) [Compound A110]

1. 90
2. 70
3. 70
4. 0
5. 30
6. 70
7. 50
